Value source: ChEMBL document CHEMBL1128543

Molecular target: 5-hydroxytryptamine receptor 1D (Homo sapiens) (UniProt P28221)
Sequence (P28221 whole entry): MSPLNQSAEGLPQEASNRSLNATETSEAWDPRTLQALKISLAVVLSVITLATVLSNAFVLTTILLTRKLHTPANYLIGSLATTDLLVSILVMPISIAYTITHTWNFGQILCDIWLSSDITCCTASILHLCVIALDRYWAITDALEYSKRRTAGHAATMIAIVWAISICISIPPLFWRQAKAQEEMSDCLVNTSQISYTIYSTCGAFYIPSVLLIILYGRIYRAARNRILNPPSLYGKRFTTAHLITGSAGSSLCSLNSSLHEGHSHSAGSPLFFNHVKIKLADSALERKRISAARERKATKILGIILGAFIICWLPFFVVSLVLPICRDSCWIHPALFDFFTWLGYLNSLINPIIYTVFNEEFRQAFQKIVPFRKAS
Assay: The compound was tested for binding affinity against 5-HT1D receptor
Conditions: Oryctolagus cuniculus
property: p[A50]
Write the number on its own, no unit after it.

Some entries whose results are on file:
>  <molecule>
NCCc1c[nH]c2ccc(CC3NC(=O)N(Cc4cccc(C(=O)Nc5ccccc5)c4)C3=O)cc12 (stereo not given)

>  <p[A50]>
6.6

$$$$
>  <molecule>
C[C@@H](CO)NC(=O)[C@@H]1C=C2c3cccc4[nH]cc(c34)C[C@H]2N(C)C1

>  <p[A50]>
9

$$$$
>  <molecule>
CN(C)CCc1c[nH]c2ccc(CCN3C(=O)NC(Cc4ccc(NS(C)(=O)=O)cc4)C3=O)cc12 (stereo not given)

>  <p[A50]>
7.4

$$$$

API: value(readout=p[A50], system=5-hydroxytryptamine receptor 1D (Homo sapiens) (UniProt P28221)) for record NCCc1c[nH]c2ccc(CCC3NC(=O)N(Cc4ccccc4)C3=O)cc12 (stereo not given)
6.7

Next: CN1C(=O)NC(Cc2ccc3[nH]cc(CCN)c3c2)C1=O (stereo not given)
4.8
